Tested on: EGFR Del19/T790M/C797S (H1975-clone #28)
Assay: EGFR degradation HTRF assay, H1975-clone #28 DTC cells
Type: cell-based
Details: H1975 # 28 DTC cells; maximum percentage of inhibition (degradation)
Protocol: H1975-clone #28(Del19/T790M/C797S) and H1975-clone #23(Del19/C797S). EGFR-Del19/T790M/C797S and EGFR-Del19/C797S were stably expressed in H1975 cell lines by lentivirus-mediated over-expression, respectively. […] The inhibition (degradation) percentage of the compound was calculated by the following equation: Inhibition percentage of Compound=100-100×(Signal-low control)/(High control-low control), wherein signal=each test compound group […]
PROPERTY: Dmax (%) H1975 # 28 DTC
Response body: numeric value in %, unit text excluded.

Answered cases to consult:
CCOc1cc(N2CCC(N3CCN(CCc4cccc5c4C(C)(C)C(=O)N5C4CCC(=O)NC4=O)CC3)CC2)c(CC)cc1Nc1ncc(Br)c(Nc2ccc3nc(CC)ccc3c2P(C)(C)=O)n1 (stereo not drawn) [Example 572] :: 83.86
CCOc1cc(N2CCC(N3CCN(CCc4ccc(F)c5c4n(CC)c(=O)n5C4CCC(=O)NC4=O)CC3)CC2)c(CC)cc1Nc1ncc(Br)c(Nc2ccc3c(=O)n(CC)ncc3c2P(C)(C)=O)n1 (stereo not drawn) [Example 594] :: 85.75

# evaluate next
Value of Dmax (%) H1975 # 28 DTC reported for the molecule CCOc1cc(N2CCC(N3CCN(CCc4cc5oc(=O)n(C6CCC(=O)NC6=O)c5cc4Cl)CC3)CC2)c(CC)cc1Nc1ncc(Br)c(Nc2ccc3nc(CC)ccc3c2P(C)(C)=O)n1 (stereo not drawn) [Example 627] is 76.26

###

Molecular target: EGFR L858R/T790M/C797S (BaF3-LTC cells) (Homo sapiens, UniProt P00533, C797S/L858R/T790M)
Construct: expressed in transfected cells; host or cells: BaF3
Sequence (P00533 25-1210 T790M/C797S/L858R): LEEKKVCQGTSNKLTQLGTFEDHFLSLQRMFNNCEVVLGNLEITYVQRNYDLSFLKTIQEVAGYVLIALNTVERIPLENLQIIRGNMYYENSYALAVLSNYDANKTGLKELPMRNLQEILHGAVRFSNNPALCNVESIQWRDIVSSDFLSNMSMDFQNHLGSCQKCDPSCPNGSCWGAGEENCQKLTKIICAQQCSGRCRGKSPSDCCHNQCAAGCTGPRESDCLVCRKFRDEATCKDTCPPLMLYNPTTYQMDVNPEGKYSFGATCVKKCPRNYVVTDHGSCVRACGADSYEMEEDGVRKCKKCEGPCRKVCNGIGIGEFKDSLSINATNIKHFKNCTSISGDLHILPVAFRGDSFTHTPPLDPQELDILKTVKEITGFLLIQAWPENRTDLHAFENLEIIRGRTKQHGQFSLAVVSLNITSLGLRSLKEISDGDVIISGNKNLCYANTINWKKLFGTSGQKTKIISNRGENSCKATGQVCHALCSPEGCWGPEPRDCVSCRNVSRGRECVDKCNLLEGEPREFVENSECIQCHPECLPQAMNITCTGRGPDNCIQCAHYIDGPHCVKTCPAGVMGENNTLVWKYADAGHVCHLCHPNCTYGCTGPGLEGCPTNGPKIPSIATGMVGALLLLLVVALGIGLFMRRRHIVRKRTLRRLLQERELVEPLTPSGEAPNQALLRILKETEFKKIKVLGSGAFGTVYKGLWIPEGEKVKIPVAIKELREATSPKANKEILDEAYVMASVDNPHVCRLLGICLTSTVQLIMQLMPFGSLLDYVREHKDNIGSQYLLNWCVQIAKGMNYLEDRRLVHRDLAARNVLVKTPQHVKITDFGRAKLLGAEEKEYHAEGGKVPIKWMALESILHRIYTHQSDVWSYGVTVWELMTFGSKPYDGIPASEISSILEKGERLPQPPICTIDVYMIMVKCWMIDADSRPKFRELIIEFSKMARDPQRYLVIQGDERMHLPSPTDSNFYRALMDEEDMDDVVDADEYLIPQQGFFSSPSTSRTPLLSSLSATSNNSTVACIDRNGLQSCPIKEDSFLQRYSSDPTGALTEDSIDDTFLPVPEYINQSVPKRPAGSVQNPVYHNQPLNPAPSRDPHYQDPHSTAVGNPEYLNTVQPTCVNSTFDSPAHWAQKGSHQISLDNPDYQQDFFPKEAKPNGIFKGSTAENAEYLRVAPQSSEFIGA
Assay: EGFR degradation HTRF assay, BaF3-LTC cells
Type: cell-based
Conditions: read-out: Dmax (%) BaF3-LTC, BaF3-LTC cells; maximum percentage of inhibition (degradation)
PROPERTY: Dmax
Please answer using a numeric value trailed by its unit.

Answered cases to consult:
CCOc1cc(N2CCC(N3CCN(CCc4cc5oc(=O)n(C6CCC(=O)NC6=O)c5cc4F)CC3)CC2)c(CC)cc1Nc1ncc(Br)c(Nc2ccc3nc(CC)ncc3c2P(C)(C)=O)n1 (centres unmarked) :: 93.2%
CCc1cnc2c(P(C)(C)=O)c(Nc3nc(Nc4cc(CC)c(N5CCC(N6CCN(CCc7ccc8c(c7)oc(=O)n8C7CCC(=O)NC7=O)CC6)CC5)cc4OC)ncc3Br)ccc2n1 (centres unmarked) :: 91.8%
CCc1cc(Nc2ncc(Br)c(Nc3ccc4nc(C)ccc4c3P(C)(C)=O)n2)c(OC)cc1N1CCC(N2CCN(C(=O)C3CN(c4cccc5c4oc(=O)n5C4CCC(=O)NC4=O)C3)CC2)CC1 (centres unmarked) :: 92.1%
CCOc1cc(N2CCC(N3CCN(CCC4CCN(c5ccc6c(oc(=O)n6C6CCC(=O)NC6=O)c5F)CC4)CC3)CC2)c(CC)cc1Nc1ncc(Br)c(Nc2ccc3nc(CC)ncc3c2P(C)(C)=O)n1 (centres unmarked) :: 93.2%

The observed Dmax for CCOc1cc(N2CCC(N3CCN(CCCc4cc(F)cc5c4oc(=O)n5C4CCC(=O)NC4=O)CC3)CC2)c(CC)cc1Nc1ncc(Br)c(Nc2ccc3nc(CC)ncc3c2P(C)(C)=O)n1 (centres unmarked) when tested with EGFR L858R/T790M/C797S (BaF3-LTC cells) (Homo sapiens, UniProt P00533, C797S/L858R/T790M) stands at 93.9%

###

Target: EGFR L858R/C797S (BaF3 LC cells) (Homo sapiens, UniProt P00533, C797S/L858R)
Construct: expressed in transfected cells; host or cells: BaF3
Sequence (P00533 25-1210 C797S/L858R): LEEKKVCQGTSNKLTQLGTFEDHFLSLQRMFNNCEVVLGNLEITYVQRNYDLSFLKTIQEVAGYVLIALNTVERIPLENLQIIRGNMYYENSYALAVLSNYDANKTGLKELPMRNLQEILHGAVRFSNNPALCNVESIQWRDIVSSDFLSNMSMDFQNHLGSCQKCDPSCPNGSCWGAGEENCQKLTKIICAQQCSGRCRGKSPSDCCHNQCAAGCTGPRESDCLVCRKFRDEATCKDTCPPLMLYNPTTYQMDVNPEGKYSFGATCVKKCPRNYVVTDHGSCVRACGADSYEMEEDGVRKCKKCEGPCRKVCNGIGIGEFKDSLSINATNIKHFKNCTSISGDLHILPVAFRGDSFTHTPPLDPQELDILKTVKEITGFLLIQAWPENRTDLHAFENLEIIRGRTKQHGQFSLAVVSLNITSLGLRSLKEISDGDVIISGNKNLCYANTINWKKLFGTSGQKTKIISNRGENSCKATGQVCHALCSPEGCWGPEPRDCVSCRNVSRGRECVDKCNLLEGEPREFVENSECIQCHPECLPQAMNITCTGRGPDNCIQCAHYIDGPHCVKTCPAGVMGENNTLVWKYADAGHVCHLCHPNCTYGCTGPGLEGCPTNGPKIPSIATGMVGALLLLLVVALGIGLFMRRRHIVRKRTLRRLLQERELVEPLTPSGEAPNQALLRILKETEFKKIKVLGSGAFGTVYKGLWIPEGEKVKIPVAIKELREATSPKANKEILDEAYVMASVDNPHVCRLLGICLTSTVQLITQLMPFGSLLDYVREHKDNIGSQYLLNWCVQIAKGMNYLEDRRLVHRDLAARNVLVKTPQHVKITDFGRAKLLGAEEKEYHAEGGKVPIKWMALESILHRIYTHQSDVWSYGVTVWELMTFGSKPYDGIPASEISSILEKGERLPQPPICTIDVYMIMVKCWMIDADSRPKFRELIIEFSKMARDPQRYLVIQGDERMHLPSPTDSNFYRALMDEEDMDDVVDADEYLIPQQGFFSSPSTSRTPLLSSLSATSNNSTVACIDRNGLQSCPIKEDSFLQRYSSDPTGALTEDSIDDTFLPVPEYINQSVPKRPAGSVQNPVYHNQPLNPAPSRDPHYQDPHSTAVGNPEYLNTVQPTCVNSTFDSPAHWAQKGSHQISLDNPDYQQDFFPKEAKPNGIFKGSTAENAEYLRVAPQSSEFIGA
Assay: EGFR degradation HTRF assay, BaF3 LC cells
Assay type: cell-based
Details: BaF3 LC, 16h treatment; read-out: BaF3 LC DC50
// NB: equality with 10 nM counts as Criterion not met; only DC50 strictly below is Criterion met

# example entries with known answers
CCc1ncc2c(P(C)(C)=O)c(Nc3nc(Nc4cc(CC)c(N5CCC(N6CCN(CCc7ccc8c(c7)oc(=O)n8C7CCC(=O)NC7=O)CC6)CC5)cc4OC)ncc3Br)ccc2n1 (stereo not drawn) :: Criterion met
CCOc1cc(N2CCC(N3CCN(CCc4cccc5c4oc(=O)n5C4CCC(=O)NC4=O)CC3)CC2)c(CC)cc1Nc1ncc(Br)c(Nc2ccc3nc(CC)ccc3c2P(C)(C)=O)n1 (stereo not drawn) :: Criterion not met
CCc1cc(Nc2ncc(Br)c(Nc3cc(F)c4nc(C)ccc4c3P(C)(C)=O)n2)c(OC)cc1N1CCC(N2CCN(C(=O)[C@@H]3CCN(c4cc(F)c([C@H]5CCC(=O)NC5=O)c(F)c4)C3)CC2)CC1 :: Criterion met
CCOc1cc(N2CCC(N3CCN(CCc4ccc5c(c4)oc(=O)n5C4CCC(=O)NC4=O)CC3)CC2)c(CC)cc1Nc1ncc(Br)c(Nc2ccc3nc(C)ccc3c2P(C)(C)=O)n1 (stereo not drawn) :: Criterion met

Check if DC50 falls below 10 nM for `CCc1cc(Nc2ncc(Br)c(Nc3ccc4c(=O)n(C5CC5)ncc4c3P(C)(C)=O)n2)c(OC)cc1N1CCC(N2CCN(C(=O)[C@@H]3CCN(c4cc(F)c([C@H]5CCC(=O)NC5=O)c(F)c4)C3)CC2)CC1` .
Criterion not met

Check if DC50 falls below 10 nM for `CCc1cc(Nc2ncc(Br)c(Nc3ccc4nc(NC(=O)C5CC5)ccc4c3P(C)(C)=O)n2)c(OC)cc1N1CCC(N2CCN(C(=O)[C@@H]3CCN(c4cc(F)c([C@H]5CCC(=O)NC5=O)c(F)c4)C3)CC2)CC1` .
Criterion not met

Check if DC50 falls below 10 nM for CCOc1cc(N2CCC(N3CCN(CCc4cc(F)cc5c4n(C)c(=O)n5C4CCC(=O)NC4=O)CC3)CC2)c(CC)cc1Nc1ncc(Br)c(Nc2ccc3nc(CC)ccc3c2P(C)(C)=O)n1 (stereo not drawn) .
Criterion not met

Check if DC50 falls below 10 nM for CCOc1cc(N2CCC(N3CCN(CCc4cc(C)cc5c4oc(=O)n5C4CCC(=O)NC4=O)CC3)CC2)c(CC)cc1Nc1ncc(Br)c(Nc2ccc3nc(CC)ccc3c2P(C)(C)=O)n1 (stereo not drawn) .
Criterion not met

Check if DC50 falls below 10 nM for CCc1ccc2c(P(C)(C)=O)c(Nc3nc(Nc4cc(CC)c(N5CCC(N6CCN(CCc7ccc8c(oc(=O)n8C8CCC(=O)NC8=O)c7F)CC6)CC5)cc4OC)ncc3Br)ccc2n1 (stereo not drawn) .
Criterion met

Check if DC50 falls below 10 nM for CCc1ccc2c(P(C)(C)=O)c(Nc3nc(Nc4cc(CC)c(N5CCC(N6CCN(CCc7cc(F)c(C8CCC(=O)NC8=O)c(F)c7)CC6)CC5)cc4OC)ncc3Br)ccc2n1 (stereo not drawn) .
Criterion not met

Check if DC50 falls below 10 nM for `CCOc1cc(N2CCC(N3CCN(CCc4cc(F)c([C@H]5CCC(=O)NC5=O)c(F)c4)CC3)CC2)c(CC)cc1Nc1ncc(Br)c(Nc2ccc3nc(CC)ccc3c2P(C)(C)=O)n1` .
Criterion not met

Check if DC50 falls below 10 nM for CCOc1cc(N2CCC(N3CCN(CCc4cccc5c4n(C)c(=O)n5C4CCC(=O)NC4=O)CC3)CC2)c(CC)cc1Nc1ncc(Br)c(Nc2ccc3nc(CC)ccc3c2P(C)(C)=O)n1 (stereo not drawn) .
Criterion met

Check if DC50 falls below 10 nM for CCOc1cc(N2CCC(N3CCN(CCc4cc5oc(=O)n(C6CCC(=O)NC6=O)c5cc4C)CC3)CC2)c(CC)cc1Nc1ncc(Br)c(Nc2ccc3nc(CC)ccc3c2P(C)(C)=O)n1 (stereo not drawn) .
Criterion met

Check if DC50 falls below 10 nM for CCOc1cc(N2CCC(N3CCN(CCc4cccc5c4n(CC)c(=O)n5C4CCC(=O)NC4=O)CC3)CC2)c(CC)cc1Nc1ncc(Br)c(Nc2ccc3nc(CC)ccc3c2P(C)(C)=O)n1 (stereo not drawn) .
Criterion not met

###

Biological target: EGFR L858R/T790M (H1975-clone #36, homozygous) (Homo sapiens, UniProt P00533, L858R/T790M)
Construct: designed to specifically target WT EGFR but preserve the L858R/T790M copy; host or cells: H1975-clone #36
Sequence (P00533 25-1210 T790M/L858R): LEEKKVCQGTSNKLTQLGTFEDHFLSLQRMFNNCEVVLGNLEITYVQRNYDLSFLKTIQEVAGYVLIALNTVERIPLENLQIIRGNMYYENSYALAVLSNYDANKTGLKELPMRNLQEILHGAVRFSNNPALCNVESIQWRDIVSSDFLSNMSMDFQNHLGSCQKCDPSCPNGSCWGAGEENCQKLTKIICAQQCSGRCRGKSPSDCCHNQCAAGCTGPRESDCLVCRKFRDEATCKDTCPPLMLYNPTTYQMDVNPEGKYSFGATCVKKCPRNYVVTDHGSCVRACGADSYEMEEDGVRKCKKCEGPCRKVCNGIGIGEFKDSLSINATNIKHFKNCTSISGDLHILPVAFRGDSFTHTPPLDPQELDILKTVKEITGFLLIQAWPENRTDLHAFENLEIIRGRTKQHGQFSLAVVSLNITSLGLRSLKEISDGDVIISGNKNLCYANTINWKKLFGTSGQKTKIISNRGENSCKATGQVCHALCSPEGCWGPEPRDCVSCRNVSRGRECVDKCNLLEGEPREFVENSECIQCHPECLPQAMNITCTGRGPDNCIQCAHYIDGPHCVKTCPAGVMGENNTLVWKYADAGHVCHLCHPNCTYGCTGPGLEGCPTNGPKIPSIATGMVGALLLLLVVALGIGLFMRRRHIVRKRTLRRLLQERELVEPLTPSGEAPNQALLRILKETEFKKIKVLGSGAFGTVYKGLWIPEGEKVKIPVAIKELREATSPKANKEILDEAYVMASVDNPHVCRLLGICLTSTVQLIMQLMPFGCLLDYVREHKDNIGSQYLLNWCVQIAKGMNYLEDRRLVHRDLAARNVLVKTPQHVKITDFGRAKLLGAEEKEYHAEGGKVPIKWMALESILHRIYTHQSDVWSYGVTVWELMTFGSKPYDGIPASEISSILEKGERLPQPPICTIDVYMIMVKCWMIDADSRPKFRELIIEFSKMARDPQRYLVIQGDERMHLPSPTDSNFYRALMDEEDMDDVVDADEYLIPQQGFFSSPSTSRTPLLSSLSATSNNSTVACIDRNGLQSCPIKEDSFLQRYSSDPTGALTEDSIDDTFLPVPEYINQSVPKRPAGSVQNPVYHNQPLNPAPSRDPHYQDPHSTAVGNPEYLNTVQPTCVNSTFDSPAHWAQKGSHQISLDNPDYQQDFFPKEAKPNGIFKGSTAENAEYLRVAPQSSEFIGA
Assay: EGFR degradation HTRF assay, H1975-clone #36 cells
Format: cell-based
Details: H1975 #36, 16h treatment
Protocol: H1975-clone #36(L858R/T790M). H1975 cell heterozygously (from ATCC) contains alleles of WT and L858R/T790M EGFR. […] The inhibition (degradation) percentage of the compound was calculated by the following equation: Inhibition percentage of Compound=100-100×(Signal-low control)/(High control-low control), wherein signal=each test compound group High control=Cell group with added DMSO and without compound, indicating microplate readings without EGFR degradation; […]
The entries below come with measured log10 of DC50 values attached.
Please interpret these as log10 of DC50 where DC50 is in nM.

COc1cc(N2CCC(N(C)CC3CCN(c4ccc(C5CCC(=O)NC5=O)cc4)CC3)CC2)c(C)cc1Nc1ncc(Br)c(Nc2ccc3nccnc3c2P(C)(C)=O)n1 (stereo not shown) [Example 77] :: 0.44
CCc1cc(Nc2ncc(Br)c(Nc3ccc4nccnc4c3P(C)(C)=O)n2)c(OC)cc1N1CCC(N2CCN(CCCC3CN(c4ccc5c(c4)C(=O)N(C4CCC(=O)NC4=O)C5=O)C3)CC2)CC1 (stereo not shown) [Example 56] :: 0.81
CCc1cc(Nc2ncc(Br)c(Nc3ccc4nccnc4c3P(C)(C)=O)n2)c(OC)cc1N1CCC(N2CCN(CCOCCC(=O)N[C@H](C(=O)N3C[C@H](O)C[C@H]3C(=O)NCc3ccc(-c4scnc4C)cc3)C(C)(C)C)CC2)CC1 [Example 103] :: 1.63

Value of log10 of DC50 reported for the molecule CCc1cc(Nc2ncc(Br)c(Nc3ccc4nccnc4c3P(C)(C)=O)n2)c(OC)cc1N1CCC(N2CCN(CC3CN(c4ccc5c(c4)C(=O)N(C4CCC(=O)NC4=O)C5=O)C3)CC2)CC1 (stereo not shown) [Example 59] is 0.21

Value of log10 of DC50 reported for the molecule CCc1cc(Nc2ncc(Br)c(Nc3ccc4nccnc4c3P(C)(C)=O)n2)c(OC)cc1N1CCC(N2CCN(CCc3ccc(NC4CCC(=O)NC4=O)cc3)CC2)CC1 (stereo not shown) [Example 48] is 0.97
